All figures here come from paper PMC10033419.

assay: Pharmacokinetics in mice, i.v. and oral; type: in vivo, CD-1 mice; conditions: male, CD-1, plasma; mouse oral 30 mg/kg
assay_readout: Cmax

Lookup: Field request: Cmax | item: COc1cc(N[C@H](C(=O)c2c[nH]c3ccc(OC(F)(F)F)cc23)c2ccc(Cl)cc2OC)cc(S(C)(=O)=O)c1 [JNJ-1802]
Found: 7760 ng/mL
